- tested_target: human HDAC1 (Homo sapiens)
- Construct: Full length human HDAC1 was cloned by PCR; Flag (C); implied by Ni-NTA purification) (N)
- Sequence (Q13547 whole entry): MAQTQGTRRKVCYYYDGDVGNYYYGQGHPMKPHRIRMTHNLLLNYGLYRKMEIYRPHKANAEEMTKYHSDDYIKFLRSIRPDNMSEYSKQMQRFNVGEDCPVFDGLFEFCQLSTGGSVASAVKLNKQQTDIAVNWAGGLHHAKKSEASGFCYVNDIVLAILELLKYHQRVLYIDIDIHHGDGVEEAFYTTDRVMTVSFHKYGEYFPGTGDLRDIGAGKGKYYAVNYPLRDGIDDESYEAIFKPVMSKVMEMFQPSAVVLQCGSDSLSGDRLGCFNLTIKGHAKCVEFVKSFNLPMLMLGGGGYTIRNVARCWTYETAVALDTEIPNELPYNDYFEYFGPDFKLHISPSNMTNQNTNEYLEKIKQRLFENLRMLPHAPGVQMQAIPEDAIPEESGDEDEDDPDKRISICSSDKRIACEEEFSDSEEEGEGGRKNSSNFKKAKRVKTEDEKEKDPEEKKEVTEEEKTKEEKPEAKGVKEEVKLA
- test_summary: Primary assay: deacetylase activity, recombinantly produced HDAC1
- conditions_used: Table 1; recombinant HDAC1; read-out: HDAC Inhibition (IC50 unless otherwise specified) HDAC1
pIC50: −log10 of the molar value.
Items are presented alongside their recorded pIC50.

smiles_data: O=C(/C=C/c1cccc(S(=O)(=O)NCCc2ccccc2)c1)NO
pIC50: 6.34

smiles_data: Cc1ccc(S(=O)(=O)Nc2cccc(/C=C/C(=O)NO)c2)cc1
pIC50: 7.30

smiles_data: COc1ccc(NS(=O)(=O)c2cccc(/C=C/C(=O)NO)c2)cc1
pIC50: 7.54

smiles_data: Cc1ccc(NS(=O)(=O)c2cccc(/C=C/C(=O)NO)c2)cc1
pIC50: 7.05
